Molecular target: T1, 4H446-AA
T1 chain: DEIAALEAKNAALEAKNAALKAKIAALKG
Experiment: two-hybrid library CCmax;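 note: natural log of median RNA to DNA barcode read ratio; higher means stronger binding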
Details: mean of both orientations
MEASURED_METRIC: interaction score

Study these solved cases before continuing.
Q: Given the binder DKNAALKAEIAALEAKIAALKAKIAALEG [4H3629-AA] , what is its reported interaction score?
Result: -1.96

Q: Given the binder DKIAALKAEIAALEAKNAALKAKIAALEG [4H2621-AA] , what is its reported interaction score?
Result: -1.41

(1) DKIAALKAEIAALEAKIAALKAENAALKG [4H2604-AA]
(2) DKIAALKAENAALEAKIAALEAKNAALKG [4H2728-AA]
Q: I'm curious, which of these has a smaller interaction score number: 1 or 2 ? Indicate which entry you chose by stating its label.
Result: 1
(1: -1.79, 2: -0.989)
